Kindly supply the reported Percent Effect values for the records listed here.
Tested on: Wolbachia pipientis
Test: Anti-Wolbachia Cell-Based Screen
Format: functional
Parameters: scale not given: in the data most compounds retested in dose-response had high values
Details: 5 µM
About 13,000 (27%) of roughly 48,000 compounds showed an effect of 50% or more. This is one part of the list.
Just the number in %, nothing appended.

Exercise: Look up Percent Effect: "CCc1ccsc1C(=O)N1CCN(CC(N)=O)CC1"
Key: 101.9

Exercise: Look up Percent Effect: "O=C(c1ccnnc1)N1CCc2onc(CN3CCCC3)c2C1"
Key: -11.85

Exercise: Look up Percent Effect: "CC(C)c1nc(/C=C/c2cnn(-c3ccccc3)c2)ncc1C(=O)O"
Key: -2.711

Exercise: Look up Percent Effect: "CC(C)Cc1nnc(SCC(=O)O)n1-c1ccc(F)cc1F"
Key: 1.309

Exercise: Look up Percent Effect: "Cc1cc(C)n(-c2ccc(CNCc3ccc(OC(C)C)cc3)cn2)n1"
Key: -13.05

Exercise: Look up Percent Effect: "COC(=O)NCCC(=O)NCC1(c2cccc(Cl)c2)CC1"
Key: 6.503

Exercise: Look up Percent Effect: CCc1ccc(C(C)NCc2nccn2Cc2ccccc2)o1 (stereo not drawn)
Key: -9.423

Exercise: Look up Percent Effect: "CCc1ccsc1C(=O)N1CCN(CCN2C(=O)CCC2=O)CC1"
Key: 117.8

Exercise: Look up Percent Effect: "CCC(=O)N1CCc2onc(CNS(C)(=O)=O)c2C1"
Key: 86.89

Exercise: Look up Percent Effect: "CN1CC(Oc2ccccc2)=NC(SCC(=O)Nc2ccc(Cl)cc2)=N1"
Key: 11.53

Exercise: Look up Percent Effect: "CCO[C@H]1CN(C)C[C@@H]1NC(=O)c1c[nH]nc1C1CCCCC1"
Key: -8.959

Exercise: Look up Percent Effect: "CCOc1cccc(CNC(=O)NC2CC=CC2)c1OC(F)F"
Key: 3.017

Exercise: Look up Percent Effect: "CC(=O)N1CCN(C(=O)c2sccc2Br)CC1"
Key: -5.711

Exercise: Look up Percent Effect: "O=C(NCCc1nc2ccccc2s1)c1coc(CN2CCOCC2)c1"
Key: -17.38

Exercise: Look up Percent Effect: "C[C@@H]1CN(C(=O)CCCN2CCOCC2)CC[C@@]1(O)C1CCC1"
Key: -2.629

Exercise: Look up Percent Effect: Cc1ccc(C(CNCc2ccncc2)N2CCOCC2)s1 (stereo not drawn)
Key: -8.996

Exercise: Look up Percent Effect: "Cc1cc(=O)n(CC(=O)Nc2ccc(Cl)cc2)nc1C"
Key: -24.72

Exercise: Look up Percent Effect: "COC(=O)N1CC(C)=C(C)CN1C(=O)Nc1ccc(Cl)c(Cl)c1"
Key: 93.89

Exercise: Look up Percent Effect: "O=C(c1cccs1)N1CCN(C(=O)c2ncoc2-c2ccco2)CC1"
Key: -2.664

Exercise: Look up Percent Effect: CC(C)Cc1n[nH]c(C2CC(=O)N(CC(C)C)C2)n1 (stereo not drawn)
Key: -3.52

Exercise: Look up Percent Effect: "CCS(=O)(=O)N1CCC2(CN(c3cc(OC)ncn3)C2)C1"
Key: -9.777

Exercise: Look up Percent Effect: "Cc1nc(S(=O)(=O)N2CCc3[nH]nc(CCC(C)C)c3C2)cn1C"
Key: 14.04

Exercise: Look up Percent Effect: "COCC(=O)N1CCc2c(CNS(C)(=O)=O)n[nH]c2C1"
Key: 5.679

Exercise: Look up Percent Effect: "COc1cc(N2CC3(CCN(S(=O)(=O)C4CC4)C3)C2)ncn1"
Key: -10.78

Exercise: Look up Percent Effect: "CCCc1cc(CN(C)C2CSCCSC2)n[nH]1"
Key: -33.01

Exercise: Look up Percent Effect: "COC(=O)N1CC(C)=C(C)CN1C(=O)Nc1ccc(Cl)cc1"
Key: 87.33

Exercise: Look up Percent Effect: "COc1ccc(NC(=O)Cn2nc(C)c(C)cc2=O)cc1Cl"
Key: -5.001

Exercise: Look up Percent Effect: "CSc1ccsc1C(=O)N1CCN(CC(C)(C)O)CC1"
Key: 6.232

Exercise: Look up Percent Effect: "COC(=O)NCCCC(=O)NCC1(c2cccc(Cl)c2)CC1"
Key: -5.013

Exercise: Look up Percent Effect: "CCCn1cc2c(C(F)F)cc(SCC(=O)O)nc2n1"
Key: 93.6

Exercise: Look up Percent Effect: "COc1ccnc(NCc2ccccc2Cn2cccn2)n1"
Key: 13.47

Exercise: Look up Percent Effect: Cc1ccc(NC(=O)N2CCOC(C)C2)cc1Cl (stereo not drawn)
Key: 8.105

Exercise: Look up Percent Effect: "Cc1cc(SCC(=O)O)nc2nn(CC(F)F)c(C)c12"
Key: 120.4

Exercise: Look up Percent Effect: COc1cc(N2CCC3(CC2)C(c2ccncc2)CC(=O)N3C)ncn1 (stereo not drawn)
Key: 16.73

Exercise: Look up Percent Effect: "CC(C)COC(=O)N1CCCN(Cc2nnc(C(C)(C)C)o2)CC1"
Key: -7.056

Exercise: Look up Percent Effect: Cc1ccc(C(CNCc2nccn2C)N2CCOCC2)s1 (stereo not drawn)
Key: -4.854

Exercise: Look up Percent Effect: "CS(=O)(=O)NCc1noc2c1CN(C(=O)C1CC1)CC2"
Key: 103.2

Exercise: Look up Percent Effect: CCCn1cc(C(=O)NC(CC(=O)O)c2ccccc2F)c(C)n1 (stereo not drawn)
Key: -6.071

Exercise: Look up Percent Effect: CCc1ccc(C(=O)N2CCN(CC(C)O)CC2)o1 (stereo not drawn)
Key: -6.937

Exercise: Look up Percent Effect: Cc1ccc(NC(=O)N2CCCC(O)(CO)CC2)cc1Cl (stereo not drawn)
Key: -14.19

Exercise: Look up Percent Effect: "Cc1nn2cccnc2c1C(=O)NCc1ccccc1OCC1CC1"
Key: 6.014

Exercise: Look up Percent Effect: "CC(C)c1nnc2n1CCN(CCCS(=O)(=O)c1ccccc1)C2"
Key: -6.679

Exercise: Look up Percent Effect: "COc1ccc(CCNC(=O)N2CCN(C)[C@@H]3CS(=O)(=O)C[C@@H]32)cc1"
Key: 3.976

Exercise: Look up Percent Effect: CN(C)C(=O)CCC[S+]([O-])Cc1cc(Cl)ccc1Cl (stereo not drawn)
Key: 0.1259

Exercise: Look up Percent Effect: "CS(=O)(=O)NCc1noc2c1CN(C(=O)c1ccsc1)CC2"
Key: 8.076

Exercise: Look up Percent Effect: "Cc1csc(N2CCCN(C(=O)c3cccs3)CC2)n1"
Key: 5.258

Exercise: Look up Percent Effect: COc1cc(N2CCC3(CC2)CC(N2CCOCC2)CO3)ncn1 (stereo not drawn)
Key: -10.74

Exercise: Look up Percent Effect: "Cc1nc(NS(=O)(=O)c2cc(Br)ccc2C)no1"
Key: -15.2
